- assay_target: Caspase-1 (Homo sapiens, UniProt P29466)
- Sequence (P29466 120-297 limits assumed): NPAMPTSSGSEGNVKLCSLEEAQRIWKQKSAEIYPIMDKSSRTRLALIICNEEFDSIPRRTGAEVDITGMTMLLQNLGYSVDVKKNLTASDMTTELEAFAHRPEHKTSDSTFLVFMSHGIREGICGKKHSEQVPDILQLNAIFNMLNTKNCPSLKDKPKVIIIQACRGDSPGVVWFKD
- Sequence (P29466 317-404 limits assumed): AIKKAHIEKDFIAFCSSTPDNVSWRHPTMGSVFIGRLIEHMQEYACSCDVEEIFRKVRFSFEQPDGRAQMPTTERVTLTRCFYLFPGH
- method_summary: Inhibition of human recombinant IL-1 beta converting enzyme
readout_label: Ki
# do not omit the unit; it follows the number

Per the record, CCC(C(=O)N[C@@H](CC(=O)O)C(=O)CN(C)CCCC(N)=O)n1cccc(NC(=O)c2ccc3ccccc3c2)c1=O (stereo partly specified) has Ki of 37 nM

Recorded Ki (compound CCC(C(=O)N[C@@H](CC(=O)O)C(=O)CN[C@@H](Cc1ccccc1)C(N)=O)n1cccc(NC(=O)c2ccc3ccccc3c2)c1=O (stereo partly specified) ): 78 nM

Ki for CCC(C(=O)NC(CC(=O)O)C(=O)CNC(=O)c1ccccc1)n1cccc(NC(=O)c2ccc3ccccc3c2)c1=O (stereo unspecified) is 57.5 nM

Field Ki (entry CCCCCCNCC(=O)[C@H](CC(=O)O)NC(=O)C(CC)n1cccc(NC(=O)c2ccc3ccccc3c2)c1=O (stereo partly specified) ) reads 0.85 nM

The value of Ki measured for the compound CCOC(=O)C1CCN(CC(=O)C(CC(=O)O)NC(=O)C(CC)n2cccc(NC(=O)c3ccc4ccccc4c3)c2=O)CC1 (stereo unspecified) turned out to be 8 nM

Lookup result for CCC(C(=O)NC(CC(=O)O)C(=O)Cn1ccc(=O)cc1)n1cccc(NC(=O)c2ccc3ccccc3c2)c1=O (stereo unspecified) ; measured Ki: 395 nM
